Each recorded value in this set is attributed to patent US6844318B2.

# PROTOCOL_DESCRIPTION: Stability of conjugates in nude mouse blood
# Assay type: in vitro ADME
# CONDITIONS_USED: fresh heparinized whole nude mouse blood, 37° C., read-out: Conjugate Stability in Blood After 5.5 Hours (Percent of Control (In Buffer, T = 0)), Nude Mouse Blood
Residues, ends and D or L forms follow the SMILES beside them. *: point of attachment. Doxorubicin(3'-N) = COc1cccc2c1C(=O)c1c(O)c3c(c(O)c1C2=O)C[C@@](O)(C(=O)CO)C[C@@H]3O[C@H]1C[C@H](N*)[C@H](O)[C@H](C)O1
READOUT: remaining at 5.5 h, 10 μmolar (%)
Numeric only. Scale: %

COc1cccc2c1C(=O)c1c(O)c3c(c(O)c1C2=O)C[C@@](O)(C(=O)CO)C[C@@H]3O[C@H]1C[C@H](NC(=O)[C@H](CC(C)C)NC(=O)CNC(=O)[C@H](CC(C)C)NC(=O)[C@@H]2CCCN2C(=O)CNC(C)=O)[C@H](O)[C@H](C)O1 [Ac-GPLG-L-Dox] (Ac-GPLGL-{Doxorubicin(3'-N)}) : 5.9
COc1cccc2c1C(=O)c1c(O)c3c(c(O)c1C2=O)C[C@@](O)(C(=O)CO)C[C@@H]3O[C@H]1C[C@H](NC(=O)[C@H](CC(C)C)NC(=O)[C@H](C)NC(=O)[C@H](Cc2ccc(O)cc2)NC(=O)[C@H](CC(C)C)NC(=O)CNC(=O)[C@H](CC(C)C)NC(=O)[C@@H]2CCCN2C(C)=O)[C@H](O)[C@H](C)O1 [Ac-PLG-LYAL-Dox, acetyl -P-L-G-L-Y-A-L-Dox] (Ac-PLGLYAL-{Doxorubicin(3'-N)}) : 20
COc1cccc2c1C(=O)c1c(O)c3c(c(O)c1C2=O)C[C@@](O)(C(=O)CO)C[C@@H]3O[C@H]1C[C@H](NC(=O)[C@H](CC(C)C)NC(=O)[C@H](C)NC(=O)[C@H](CC(C)C)NC(=O)CNC(=O)[C@H](CC(C)C)NC(=O)[C@@H]2CCCN2C(C)=O)[C@H](O)[C@H](C)O1 [Ac-PLG-LAL-Dox, acetyl-P-L-G-L-A-L-Dox] (Ac-PLGLAL-{Doxorubicin(3'-N)}) : 9
COc1cccc2c1C(=O)c1c(O)c3c(c(O)c1C2=O)C[C@@](O)(C(=O)CO)C[C@@H]3O[C@H]1C[C@H](NC(=O)[C@H](CC(C)C)NC(=O)CNC(=O)[C@H](CC(C)C)NC(=O)[C@@H]2CCCN2C(C)=O)[C@H](O)[C@H](C)O1 [Ac-PLG-L-Dox, Ac-PLGL-Dox] (Ac-PLGL-{Doxorubicin(3'-N)}) : 68.2
COc1cccc2c1C(=O)c1c(O)c3c(c(O)c1C2=O)C[C@@](O)(C(=O)CO)C[C@@H]3O[C@H]1C[C@H](NC(=O)[C@H](CC(C)C)NC(=O)[C@H](C)NC(=O)[C@H](CC(C)C)NC(=O)[C@H](CC(C)C)NC(=O)CNC(=O)[C@H](CC(C)C)NC(=O)[C@@H]2CCCN2C(C)=O)[C@H](O)[C@H](C)O1 [Ac-PLG-LLAL-Dox, acetyl -P-L-G-L-L-A-L-Dox] (Ac-PLGLLAL-{Doxorubicin(3'-N)}) : 19.2

Noted for COc1cccc2c1C(=O)c1c(O)c3c(c(O)c1C2=O)C[C@@](O)(C(=O)CO)C[C@@H]3O[C@H]1C[C@H](NC(=O)[C@H](CC(C)C)NC(=O)[C@H](CC(C)C)NC(=O)CNC(=O)[C@H](CC(C)C)NC(=O)[C@@H]2CCCN2C(C)=O)[C@H](O)[C@H](C)O1 [Ac-PLG-LL-Dox, Acetyl-P-L-G-L-L-Dox] (Ac-PLGLL-{Doxorubicin(3'-N)}) : its remaining at 5.5 h, 10 μmolar reads 63.8
